Every entry's value here was drawn from ChEMBL document CHEMBL1795268.

System: Bacillus subtilis
assay.procedure: Antimicrobial activity against Bacillus subtilis after 24 hrs by agar well diffusion assay
Type: functional
Mark MET only for MIC values smaller than 20 µg/mL; exact matches and larger values are NOT MET.

INSERT INTO results (smiles_structure, measured_target, label_value) VALUES
  ('O=S1(=O)c2ccc(cc2)Cn2cc[n+](c2)Cc2ccc(cc2)-c2cccc(c2)-c2ccc(cc2)C[n+]2ccn(c2)Cc2ccc1cc2.[Br-].[Br-]', 'Bacillus subtilis', 'MET');

State whether 20 µg/mL exceeds MIC recorded for `COc1cc2c(OC)cc1C[n+]1ccn(c1)Cc1ccc(cc1)S(=O)(=O)c1ccc(cc1)Cn1cc[n+](c1)C2.[Br-].[Br-]` . MET
